# Population Normal (%) per entry
System: HEK-293T
Assay: Multiplex assay against HEK293T
Type: toxicity, cell-based
Settings: human, 48 h, 10 µM, compound concentration 10 uM, replicate 1
PARAMETER_MEASURED: Population Normal (%)

[[record]]
compound = "C=CC(=O)Nc1cccc(C(=O)Nc2ccc(Nc3cc(-c4[nH]c(SC)nc4C)ccn3)cc2)c1"
tested_on = "HEK-293T"
readout_value = 85

[[record]]
compound = "CN1CCCC(n2nc(Cc3ccc(Cl)cc3)c3ccccc3c2=O)CC1.Cl (centres undefined) [AZELASTINE HYDROCHLORIDE]"
tested_on = "HEK-293T"
readout_value = 72

[[record]]
compound = "CC[C@H](C)C(=O)O[C@H]1C[C@@H](C)C=C2C=C[C@H](C)[C@H](CC[C@@H]3C[C@@H](O)CC(=O)O3)[C@H]21 [LOVASTATIN]"
tested_on = "HEK-293T"
readout_value = 80

[[record]]
compound = "CNCc1ccccc1-c1csc([C@H](C)Nc2nc(C)nc3cc(OC)c(OC)cc23)c1 [BAY-294]"
tested_on = "HEK-293T"
readout_value = 81


----------
Test system: Fibroblast
Assay: Multiplex assay against human fibroblast
Format: toxicity, cell-based
Conditions: 48 h, 10 µM, compound concentration 10 uM, replicate 2
Friendly reminder: Population Normal (%) below 80% is true (1), at or above is false (0).

[[record]]
compound = "Cn1cc(-c2[nH]c3cc(NC(=O)[C@H](N)C4CCCCC4)cc4c3c2C=NNC4=O)cn1"
category = "true (1)"

[[record]]
compound = "CN(C)C(=O)/C(C#N)=C/c1ccc(-c2nc3cnc4[nH]ccc4c3n2C2CCCCC2)o1"
category = "true (1)"

[[record]]
compound = "CNc1nc(NCc2ccc(NS(C)(=O)=O)cc2Cl)cc(-c2ccccn2)n1"
category = "true (1)"

[[record]]
compound = "C[C@@H](NCCCc1cccc(C(F)(F)F)c1)c1cccc2ccccc12.Cl [CINACALCET HYDROCHLORIDE]"
category = "true (1)"

[[record]]
compound = "NC(=O)Nc1cc(-c2cccc(F)c2)sc1C(=O)N[C@H]1CCCNC1"
category = "false (0)"

[[record]]
compound = "Cc1nc(-c2ccc(-c3ccc(C(=O)N4CCc5cc6c(cc54)C4(CCN(C)CC4)CO6)cc3)c(C)c2)no1"
category = "true (1)"

[[record]]
compound = "Cc1cc(C)cc(-c2cnc3cc(Cl)c(-c4cccc(O)c4)cc3c2OCCCN)c1"
category = "true (1)"

[[record]]
compound = "CN1CCN(CCOc2cc(OC3CCOCC3)c3c(Nc4c(Cl)ccc5c4OCO5)ncnc3c2)CC1"
category = "true (1)"

[[record]]
compound = "COc1cc2nccc(Oc3ccc(NC(=O)Nc4cc(C)on4)c(Cl)c3)c2cc1OC.O"
category = "false (0)"

[[record]]
compound = "CN(C)C(=O)N[C@H]1CC[C@H](CCN2CCN(c3cccc(Cl)c3Cl)CC2)CC1.Cl [CARIPRAZINE HYDROCHLORIDE]"
category = "true (1)"

[[record]]
compound = "C[C@@]1(C(=O)Nc2ccc(F)nc2)CCCN1c1nc(Nc2cc(C3CC3)n[nH]2)c2cccn2n1"
category = "false (0)"

[[record]]
compound = "C=CC(=O)Nc1ccc2ncnc(Nc3ccc(OCc4cccc(F)c4)c(Cl)c3)c2c1.Cc1ccc(S(=O)(=O)O)cc1"
category = "false (0)"

[[record]]
compound = "CN(C)CC#Cc1ccc(OCCCc2sc(N3CCc4cccc(C(=O)Nc5nc6ccccc6s5)c4C3)nc2C(=O)O)c(F)c1"
category = "false (0)"

[[record]]
compound = "CN1CCCC(n2nc(Cc3ccc(Cl)cc3)c3ccccc3c2=O)CC1.Cl (configuration not stated) [AZELASTINE HYDROCHLORIDE]"
category = "true (1)"

[[record]]
compound = "O=C1NCN(c2ccccc2)C12CCN(CCCOc1ccc(F)cc1)CC2 [SPIRAMIDE]"
category = "false (0)"

[[record]]
compound = "COc1cc(-n2cnc3cc(-c4ccc(Cl)cc4)sc3c2=O)ccc1OCCN1CCCC1"
category = "true (1)"


----------
Tested on: Fibroblast
Experiment: Multiplex assay against human fibroblast
Format: toxicity, cell-based
Details: 48 h, 1 µM, compound concentration 1 uM, replicate 1
# Population Mitotic Cells (%) per entry
PARAMETER_MEASURED: Population Mitotic Cells (%)

[[record]]
compound = "OC1(c2ccc(Cl)cc2)CCN(Cc2c[nH]c3ccccc23)CC1"
parameter_measured = "Population Mitotic Cells (%)"
readout_value = 17

[[record]]
compound = "C=CC(=O)Nc1cccc(C(=O)Nc2ccc(Nc3cc(-c4[nH]c(SC)nc4C)ccn3)cc2)c1"
parameter_measured = "Population Mitotic Cells (%)"
readout_value = 37

[[record]]
compound = "CN1CCN(CCOc2cc(OC3CCOCC3)c3c(Nc4c(Cl)ccc5c4OCO5)ncnc3c2)CC1"
parameter_measured = "Population Mitotic Cells (%)"
readout_value = 44

[[record]]
compound = "O=C1NCN(c2ccccc2)C12CCN(CCCOc1ccc(F)cc1)CC2 [SPIRAMIDE]"
parameter_measured = "Population Mitotic Cells (%)"
readout_value = 40

[[record]]
compound = "CNc1nc(NCc2ccc(NS(C)(=O)=O)cc2Cl)cc(-c2ccccn2)n1"
parameter_measured = "Population Mitotic Cells (%)"
readout_value = 22

[[record]]
compound = "Cc1c(-c2ccc(O)cc2)n(Cc2ccc(OCCN3CCCCCC3)cc2)c2ccc(O)cc12"
parameter_measured = "Population Mitotic Cells (%)"
readout_value = 50

[[record]]
compound = "c1cn2cc(-c3ccc4cn[nH]c4c3)nc(Nc3ccc(N4CCOCC4)cc3)c2n1"
parameter_measured = "Population Mitotic Cells (%)"
readout_value = 25

[[record]]
compound = "CN(C)C(=O)N[C@H]1CC[C@H](CCN2CCN(c3cccc(Cl)c3Cl)CC2)CC1.Cl [CARIPRAZINE HYDROCHLORIDE]"
parameter_measured = "Population Mitotic Cells (%)"
readout_value = 35

[[record]]
compound = "C=CC(=O)Nc1ccc2ncnc(Nc3ccc(OCc4cccc(F)c4)c(Cl)c3)c2c1.Cc1ccc(S(=O)(=O)O)cc1"
parameter_measured = "Population Mitotic Cells (%)"
readout_value = 35

[[record]]
compound = "COc1cccc([C@@H](C)NCCCc2ccccc2Cl)c1.Cl [TECALCET HYDROCHLORIDE]"
parameter_measured = "Population Mitotic Cells (%)"
readout_value = 45

[[record]]
compound = "Cc1[nH]c(/C=C2\\C(=O)Nc3ccc(S(=O)(=O)N(C)c4cccc(Cl)c4)cc32)c(C)c1C(=O)N1CCN(C)CC1"
parameter_measured = "Population Mitotic Cells (%)"
readout_value = 38

[[record]]
compound = "CN1CCN(c2ccc(OC(F)(F)F)c(Nc3ncc4c(n3)-c3c(c(C(N)=O)nn3CCO)CC4)c2)CC1"
parameter_measured = "Population Mitotic Cells (%)"
readout_value = 46

[[record]]
compound = "Cc1csc2c(N[C@@H](C)CN3CCN(S(=O)(=O)c4ccc(Cl)c(Cl)c4)CC3)ncnc12"
parameter_measured = "Population Mitotic Cells (%)"
readout_value = 32

[[record]]
compound = "CN(C)C(=O)/C(C#N)=C/c1ccc(-c2nc3cnc4[nH]ccc4c3n2C2CCCCC2)o1"
parameter_measured = "Population Mitotic Cells (%)"
readout_value = 47

[[record]]
compound = "CN1CCCC(n2nc(Cc3ccc(Cl)cc3)c3ccccc3c2=O)CC1.Cl (configuration not stated) [AZELASTINE HYDROCHLORIDE]"
parameter_measured = "Population Mitotic Cells (%)"
readout_value = 41

[[record]]
compound = "CN1CCC[C@@H]1CCO[C@](C)(c1ccccc1)c1ccc(Cl)cc1.O=C(O)/C=C/C(=O)O [CLEMASTINE FUMARATE]"
parameter_measured = "Population Mitotic Cells (%)"
readout_value = 50

[[record]]
compound = "Cc1nc(-c2ccc(-c3ccc(C(=O)N4CCc5cc6c(cc54)C4(CCN(C)CC4)CO6)cc3)c(C)c2)no1"
parameter_measured = "Population Mitotic Cells (%)"
readout_value = 31


----------
System: Fibroblast
Assay: Multiplex assay against human fibroblast
Type: toxicity, cell-based
Details: 12 h, 1 µM, compound concentration 1 uM, replicate 1
# Population Pyknosed Nuclei (%) per entry
PARAMETER_MEASURED: Population Pyknosed Nuclei (%)

[[record]]
molecule = "NC(=O)Nc1cc(-c2cccc(F)c2)sc1C(=O)N[C@H]1CCCNC1"
readout_value = 17

[[record]]
molecule = "O=C1NCN(c2ccccc2)C12CCN(CCCOc1ccc(F)cc1)CC2 [SPIRAMIDE]"
readout_value = 28

[[record]]
molecule = "C=CC(=O)Nc1ccc2ncnc(Nc3ccc(OCc4cccc(F)c4)c(Cl)c3)c2c1.Cc1ccc(S(=O)(=O)O)cc1"
readout_value = 36

[[record]]
molecule = "Cc1csc2c(N[C@@H](C)CN3CCN(S(=O)(=O)c4ccc(Cl)c(Cl)c4)CC3)ncnc12"
readout_value = 31

[[record]]
molecule = "COc1cccc([C@@H](C)NCCCc2ccccc2Cl)c1.Cl [TECALCET HYDROCHLORIDE]"
readout_value = 25

[[record]]
molecule = "CN1CCC[C@@H]1CCO[C@](C)(c1ccccc1)c1ccc(Cl)cc1.O=C(O)/C=C/C(=O)O [CLEMASTINE FUMARATE]"
readout_value = 24

[[record]]
molecule = "CNc1nc(NCc2ccc(NS(C)(=O)=O)cc2Cl)cc(-c2ccccn2)n1"
readout_value = 36

[[record]]
molecule = "CN1CCN(CCOc2cc(OC3CCOCC3)c3c(Nc4c(Cl)ccc5c4OCO5)ncnc3c2)CC1"
readout_value = 27

[[record]]
molecule = "Cn1cc(-c2[nH]c3cc(NC(=O)[C@H](N)C4CCCCC4)cc4c3c2C=NNC4=O)cn1"
readout_value = 30

[[record]]
molecule = "CC(C)C(=O)Nc1n[nH]c2cc(-c3cccc(NS(=O)(=O)C4CC4)c3)ccc12"
readout_value = 26

[[record]]
molecule = "COc1cc(-n2cnc3cc(-c4ccc(Cl)cc4)sc3c2=O)ccc1OCCN1CCCC1"
readout_value = 18

[[record]]
molecule = "CCN(CC)CCCCNc1ncc2cc(-c3cc(OC)cc(OC)c3)c(NC(=O)NC(C)(C)C)nc2n1"
readout_value = 63

[[record]]
molecule = "C=CC(=O)Nc1cc2c(Nc3ccc(F)c(Cl)c3)ncnc2cc1OCCCN1CCOCC1.Cl.Cl [CANERTINIB DIHYDROCHLORIDE]"
readout_value = 10

[[record]]
molecule = "CN(C)CC#Cc1ccc(OCCCc2sc(N3CCc4cccc(C(=O)Nc5nc6ccccc6s5)c4C3)nc2C(=O)O)c(F)c1"
readout_value = 27

[[record]]
molecule = "COc1cc2nccc(Oc3ccc(NC(=O)Nc4cc(C)on4)c(Cl)c3)c2cc1OC.O"
readout_value = 16

[[record]]
molecule = "C[C@@H](NCCCc1cccc(C(F)(F)F)c1)c1cccc2ccccc12.Cl [CINACALCET HYDROCHLORIDE]"
readout_value = 30

[[record]]
molecule = "Cc1nc(-c2ccc(-c3ccc(C(=O)N4CCc5cc6c(cc54)C4(CCN(C)CC4)CO6)cc3)c(C)c2)no1"
readout_value = 31

[[record]]
molecule = "CC[C@H](C)C(=O)O[C@H]1C[C@@H](C)C=C2C=C[C@H](C)[C@H](CC[C@@H]3C[C@@H](O)CC(=O)O3)[C@H]21"
readout_value = 31

[[record]]
molecule = "Cc1[nH]c(/C=C2\\C(=O)Nc3ccc(S(=O)(=O)N(C)c4cccc(Cl)c4)cc32)c(C)c1C(=O)N1CCN(C)CC1"
readout_value = 22

[[record]]
molecule = "Cc1c(-c2ccc(O)cc2)n(Cc2ccc(OCCN3CCCCCC3)cc2)c2ccc(O)cc12"
readout_value = 39

[[record]]
molecule = "Cc1nc(-c2cn3c(n2)-c2ccc(-c4cnn(C(C)(C)C(N)=O)c4)cc2OCC3)n(C(C)C)n1"
readout_value = 17

[[record]]
molecule = "Cl.N#Cc1ccc2[nH]cc(CCCCN3CCN(c4ccc5oc(C(N)=O)cc5c4)CC3)c2c1 [VILAZODONE HYDROCHLORIDE]"
readout_value = 38

[[record]]
molecule = "CN(C)C(=O)N[C@H]1CC[C@H](CCN2CCN(c3cccc(Cl)c3Cl)CC2)CC1.Cl [CARIPRAZINE HYDROCHLORIDE]"
readout_value = 33

[[record]]
molecule = "CN1CCCC(n2nc(Cc3ccc(Cl)cc3)c3ccccc3c2=O)CC1.Cl (configuration not stated) [AZELASTINE HYDROCHLORIDE]"
readout_value = 23

[[record]]
molecule = "COc1ncc(-c2ccc3nccc(-c4ccnnc4)c3c2)cc1NS(=O)(=O)c1ccc(F)cc1F"
readout_value = 29

[[record]]
molecule = "OC1(c2ccc(Cl)cc2)CCN(Cc2c[nH]c3ccccc23)CC1"
readout_value = 32

[[record]]
molecule = "CN1CCN(c2ccc(OC(F)(F)F)c(Nc3ncc4c(n3)-c3c(c(C(N)=O)nn3CCO)CC4)c2)CC1"
readout_value = 40

[[record]]
molecule = "Cc1nc(Nc2n[nH]c3c2CN(C(=O)N[C@H](CN(C)C)c2ccccc2)C3(C)C)c2sccc2n1"
readout_value = 18

[[record]]
molecule = "CC(C)(O)CNc1ncc(-c2ccnc(Nc3ccnc(Cl)c3)n2)c(CC2CC2)n1"
readout_value = 25

[[record]]
molecule = "C[C@@]1(C(=O)Nc2ccc(F)nc2)CCCN1c1nc(Nc2cc(C3CC3)n[nH]2)c2cccn2n1"
readout_value = 13

[[record]]
molecule = "c1cn2cc(-c3ccc4cn[nH]c4c3)nc(Nc3ccc(N4CCOCC4)cc3)c2n1"
readout_value = 40

